reportedProperty: melting point

- molecule: "O=C1N(CC2CC2(F)F)c2ccccc2C12COc1cc3c(cc12)OCCO3 (centres unmarked)"
  reportedProperty: "melting point"
  valueMeasured: "162 to 164 °C"
- molecule: "CN1C(=O)C2(COc3cc4c(cc32)OCCO4)c2c(-c3ccc4ccc(=O)oc4c3)cccc21 (centres unmarked)"
  reportedProperty: "melting point"
  valueMeasured: "228 to 229 °C"
- molecule: "O=C1N(Cc2cccnc2)c2ccccc2C12COc1ccc3nonc3c12 (centres unmarked)"
  reportedProperty: "melting point"
  valueMeasured: "230 to 232 °C"
- molecule: "Nc1cccc2c1C1(COc3cc4c(cc31)CCO4)C(=O)N2C[C@H]1CCCO1 (some centres unmarked)"
  reportedProperty: "melting point"
  valueMeasured: "190 to 192 °C"
- molecule: "CC(C)c1nc(CN2C(=O)C3(COc4cc5c(cc43)OCO5)c3c(-c4ccc(N(C)C)nc4)cccc32)cs1 (centres unmarked)"
  reportedProperty: "melting point"
  valueMeasured: "164 to 165 °C"
- molecule: "O=C1N(Cc2ccc3nonc3c2)c2ccccc2C12COc1cc3c(cc12)OCCO3 (centres unmarked)"
  reportedProperty: "melting point"
  valueMeasured: "164 to 166 °C"
- molecule: "O=C1N(CC2CN(Cc3ccccc3)CCO2)c2ccccc2C12COc1cc3c(cc12)OCCO3 (centres unmarked)"
  reportedProperty: "melting point"
  valueMeasured: "88 to 100 °C"
- molecule: "CN1C(=O)C2(COc3cc4c(cc32)OCCO4)c2c(NC(=O)NC3CCCCC3)cccc21 (centres unmarked)"
  reportedProperty: "melting point"
  valueMeasured: "175 to 177 °C"
